System: MKL-1
Experiment: qHTS assay to identify novel small-molecules to repurpose for Merkel cell carcinoma treatment (AID 1296009); note: nearly all actives have a fitted effect of over 60% in size
Details: MCC and control cell lines, CellTiter-Glo viability, 72 h; series mostly up to 46 µM
Inconclusive results are not listed. The source made the active and inactive calls. Calls come from the whole dose curve; as a rule, active = well fitted inhibition curve with a large enough effect; inconclusive = small, poorly fitted or top-dose-only effect; inactive = flat fitted curve, though single readings scatter.
Result category, one only: active, inactive

For orientation, consider the following solved cases.
# compound, categoryLabel
measured = [
    ("NC(=O)c1ccccc1O", "inactive"),
    ("C[N+]1(CC2COC(c3ccccc3)(C3CCCCC3)O2)CCCCC1 (stereo unspecified)", "active"),
]

Prompt: Please share the test call associated with O=C(Nc1ccccc1)OCC(CN1CCCCC1)OC(=O)Nc1ccccc1 (stereo unspecified) .
Response: inactive

Prompt: Please share the test call associated with CC(C)NCC(O)c1ccc2ccccc2c1 (stereo unspecified) .
Response: inactive

Prompt: Please share the test call associated with "CC(=O)Nc1ncc([N+](=O)[O-])s1" .
Response: inactive

* * *

System: CP266
Assay: qHTS profiling for inhibitors of Plasmodium falciparum proliferation (AID 504749); note: nearly all actives have a fitted effect of over 60% in size
Settings: P. falciparum in erythrocytes, SYBR Green DNA, 72 h; series mostly up to 28.7 µM
Inconclusive results are not listed. Activity calls are given as the source filed them. Calls follow the shape of the dose curve; as a rule, active = well fitted inhibition curve with a large enough effect; inconclusive = small, poorly fitted or top-dose-only effect; inactive = flat fitted curve, though single readings scatter.
Result category, one only: T (active), F (inactive)

For orientation, consider the following solved cases.
# moleculeSmiles, categoryLabel
rows = [
    ("Cc1cccc(C)c1NC(=O)c1ccccc1C(=O)O", "F"),
    ("Cc1cccc(C)c1NC(=O)CN1CCCCCC1", "F"),
    ("Nc1ccc(C(=O)NCC(=O)O)cc1", "F"),
    ("O=S(=O)(O)c1ccc(O)cc1", "F"),
    ("CNCCc1ccccn1", "F"),
]

Prompt: Please share the test call associated with "CCOc1ccccc1OCCN[C@H](C)Cc1ccc(OC)c(S(N)(=O)=O)c1" .
Response: F

Prompt: Please share the test call associated with "CCCCNC(=O)NS(=O)(=O)c1ccc(N)cc1" .
Response: F

Prompt: Please share the test call associated with "O[C@@H](c1cc(C(F)(F)F)nc2c(C(F)(F)F)cccc12)[C@H]1CCCCN1" .
Response: T

* * *

Tested on: CP217
Experiment: qHTS profiling for inhibitors of Plasmodium falciparum proliferation (AID 504749); note: nearly all actives have a fitted effect of over 60% in size
Conditions: P. falciparum in erythrocytes, SYBR Green DNA, 72 h; series mostly up to 28.7 µM
Results filed as inconclusive are left out. The source made the active and inactive calls. The call rests on the fitted dose curve; in most records, active means well fitted inhibition curve with a large enough effect; inconclusive means small, poorly fitted or top-dose-only effect; inactive means flat fitted curve, though single readings scatter.
Result category, one only: y = active, n = inactive

For orientation, consider the following solved cases.
# molecule, system, categoryLabel
records = [
    ("CCCc1ncc(C[n+]2ccccc2C)c(N)n1", "CP217", "n"),
    ("Cc1ccc2c(Br)cc(Br)c(O)c2n1", "CP217", "y"),
]

Turning now to a further molecule:
Prompt: Please share the test call associated with "CC(=O)OC[C@H]1O[C@@H](n2ncc(=O)[nH]c2=O)[C@H](OC(C)=O)[C@@H]1OC(C)=O" .
Response: n

* * *

Experiment: qHTS of pediatric cancer cell lines to identify multiple opportunities for drug repurposing: Primary screen for TC32 cells (AID 1347089); note: nearly all actives have a fitted effect of over 60% in size
Details: TC32 Ewing sarcoma viability, CellTiter-Glo luminescence, 48 h; series mostly up to 45.8 µM
Results filed as inconclusive are left out. The source made the active and inactive calls. The call rests on the fitted dose curve; in most records, active means well fitted cell-killing curve with a large enough effect; inconclusive means small, poorly fitted or top-dose-only effect; inactive means flat fitted curve, though single readings scatter.

# moleculeSmiles, outcome
records = [
    ("C[C@H]1[C@H]2CC[C@H]3[C@@H]4CC=C5C[C@@H](N(C)C)CC[C@]5(C)[C@H]4CC[C@]23CN1C", "inactive"),
    ("OCCOCCN1CCN(C2=Nc3ccccc3Sc3ccccc32)CC1", "inactive"),
    ("CC(C)Nc1cccnc1N1CCN(C(=O)c2cc3cc(NS(C)(=O)=O)ccc3[nH]2)CC1", "inactive"),
]

* * *

System: CP237
Experiment: qHTS profiling for inhibitors of Plasmodium falciparum proliferation (AID 504749); note: nearly all actives have a fitted effect of over 60% in size
Conditions: P. falciparum in erythrocytes, SYBR Green DNA, 72 h; series mostly up to 28.7 µM
Inconclusive results are not listed. The source made the active and inactive calls. The call rests on the fitted dose curve; in most records, active means well fitted inhibition curve with a large enough effect; inconclusive means small, poorly fitted or top-dose-only effect; inactive means flat fitted curve, though single readings scatter.
Result category, one only: True for active, False for inactive

# compound, categoryLabel
measured = [
    ("OC1C(O)C(O)C(O)C(O)C1O (stereo not given)", "False"),
    ("CCCCCCCCCCCCCC(=O)OC(C)C", "False"),
    ("O=C(NCCc1c[nH]c2ccccc12)c1cccnc1", "False"),
    ("CC(=O)NC(=O)c1ccccc1O", "False"),
]

Prompt: Please share the test call associated with "COc1cc(C(=S)N2CCOCC2)ccc1O" .
Response: False

Prompt: Please share the test call associated with CC(=O)Nc1ccc(OCC(O)CNC(C)C)cc1 (stereo not given) .
Response: False

Prompt: Please share the test call associated with "COc1cc(N)c(Cl)cc1C(=O)NC1CCN(Cc2ccccc2)CC1" .
Response: False

Prompt: Please share the test call associated with "Nc1ccc(C(=O)NCC(=O)O)cc1" .
Response: False

* * *

Test system: CP291
Assay: qHTS profiling for inhibitors of Plasmodium falciparum proliferation (AID 504749); note: nearly all actives have a fitted effect of over 60% in size
Details: P. falciparum in erythrocytes, SYBR Green DNA, 72 h; series mostly up to 28.7 µM
Results filed as inconclusive are left out. Calls of active or inactive are those of the source. Calls come from the whole dose curve; as a rule, active = well fitted inhibition curve with a large enough effect; inconclusive = small, poorly fitted or top-dose-only effect; inactive = flat fitted curve, though single readings scatter.
Result category, one only: 1 (yes) for active, 0 (no) for inactive

For orientation, consider the following solved cases.
# compound, categoryLabel
data = [
    ("O=C1C(=O)c2ccccc2C(O)=C1C1CCC(c2ccc(Cl)cc2)CC1 (stereo not drawn)", "1 (yes)"),
    ("CC(C)Nc1cccnc1N1CCN(C(=O)c2cc3cc(NS(C)(=O)=O)ccc3[nH]2)CC1", "0 (no)"),
]

Prompt: Please share the test call associated with "COc1ccc(CCN(C)CCCN2CCc3cc(OC)c(OC)cc3CC2=O)cc1OC" .
Response: 0 (no)

Prompt: Please share the test call associated with "Cc1cccc(C)c1NC(=O)CN1CCCC1" .
Response: 0 (no)

Prompt: Please share the test call associated with "Nc1nc(-c2ccccc2)c(Br)c(=O)[nH]1" .
Response: 0 (no)

Prompt: Please share the test call associated with "C#C[C@]1(O)CC[C@H]2[C@@H]3CCC4=Cc5oncc5C[C@]4(C)[C@H]3CC[C@@]21C" .
Response: 0 (no)

Prompt: Please share the test call associated with "COc1ccc(CN(CCN(C)C)c2ncccn2)cc1" .
Response: 0 (no)

Prompt: Please share the test call associated with "Cc1cc(NS(=O)(=O)c2ccc(N)cc2)nc(C)n1" .
Response: 0 (no)

Prompt: Please share the test call associated with CCC(C(=O)OCCOCCN(CC)CC)c1ccccc1 (stereo not drawn) .
Response: 0 (no)

* * *

Assay: qHTS of pediatric cancer cell lines to identify multiple opportunities for drug repurposing: Primary screen for NB-EBc1 cells (AID 1347095)
Details: NB-EBc1 neuroblastoma viability, CellTiter-Glo luminescence, 48 h; series mostly up to 46 µM
Records with an inconclusive call do not appear. Calls of active or inactive are those of the source. Calls come from the whole dose curve; as a rule, active = well fitted cell-killing curve with a large enough effect; inconclusive = small, poorly fitted or top-dose-only effect; inactive = no such curve, though single readings can be large or run the other way.
Result category, one only: TRUE = active, FALSE = inactive

# molecule, categoryLabel
records = [
    ("NCc1ccccc1Sc1ccccc1CO", "FALSE"),
    ("CC1(COc2ccc(CC3SC(=O)NC3=O)cc2)CCCCC1 (stereo unspecified)", "FALSE"),
    ("CCNC(=O)/C=C/c1cccc(Br)c1", "FALSE"),
    ("Cl/C(=C\\n1cncn1)c1ccc(Cl)cc1Cl", "FALSE"),
    ("N#CCC(=O)NN", "FALSE"),
]

Prompt: Please share the test call associated with "COc1ccc(C(=O)c2ccccc2O)c(O)c1" .
Response: FALSE

Prompt: Please share the test call associated with "C=C[C@@]1(C)CC(=O)[C@]2(O)[C@@]3(C)[C@@H](O)CCC(C)(C)[C@@H]3[C@H](O)[C@H](OC(C)=O)[C@@]2(C)O1" .
Response: FALSE

Prompt: Please share the test call associated with CC(O)Cn1cnc2c1c(=O)n(C)c(=O)n2C (stereo unspecified) .
Response: FALSE

Prompt: Please share the test call associated with "CC(=O)O[C@]1(C(C)=O)CC[C@H]2[C@@H]3C=C(C)C4=CC(=O)CC[C@]4(C)[C@H]3CC[C@@]21C" .
Response: FALSE

Prompt: Please share the test call associated with "CCOc1ccc(NC(C)=O)cc1" .
Response: FALSE

Prompt: Please share the test call associated with "CC(=O)Nc1ccc(CC(=O)O)cc1" .
Response: FALSE

Prompt: Please share the test call associated with "Nc1nc(Cl)nc2c1ncn2[C@@H]1O[C@H](CO)[C@@H](O)[C@@H]1F" .
Response: TRUE

Prompt: Please share the test call associated with N#C/C(=C1\SCC(c2ccccc2Cl)S1)n1ccnc1 (stereo unspecified) .
Response: FALSE

Prompt: Please share the test call associated with "CC1=C(C(=O)O)N2C(=O)[C@@H](NC(=O)[C@H](N)c3ccccc3)[C@H]2SC1" .
Response: FALSE

Prompt: Please share the test call associated with "Nc1nc(-c2ccccc2)c(Br)c(=O)[nH]1" .
Response: FALSE

Prompt: Please share the test call associated with "OC[C@H]1O[C@@H](Oc2ccc(O)cc2)[C@H](O)[C@@H](O)[C@@H]1O" .
Response: FALSE
